Entries below carry reported Ki on D(1A) dopamine receptor (Rattus norvegicus, UniProt P18901).
Sequence (P18901 whole entry): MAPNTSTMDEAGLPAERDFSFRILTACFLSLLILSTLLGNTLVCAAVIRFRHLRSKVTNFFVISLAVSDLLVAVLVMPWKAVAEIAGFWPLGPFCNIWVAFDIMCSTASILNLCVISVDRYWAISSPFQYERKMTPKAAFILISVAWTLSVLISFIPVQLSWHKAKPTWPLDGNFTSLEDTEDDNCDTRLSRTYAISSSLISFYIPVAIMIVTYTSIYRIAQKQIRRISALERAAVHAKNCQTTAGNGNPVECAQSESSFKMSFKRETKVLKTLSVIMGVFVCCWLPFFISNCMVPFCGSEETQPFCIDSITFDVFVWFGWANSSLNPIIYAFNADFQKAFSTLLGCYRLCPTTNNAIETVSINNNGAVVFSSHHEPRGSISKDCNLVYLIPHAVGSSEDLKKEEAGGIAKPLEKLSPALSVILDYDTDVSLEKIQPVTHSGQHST
Just the number in µM, nothing appended.

The cases that follow already have their Ki on record.
CNCCCCCCN1CCc2cc(Cl)c(O)cc2C(c2ccccc2)C1 (stereo not given)
0.0757
CN(C)CCCCN1CCc2cc(O)c(O)cc2C(c2ccccc2)C1 (stereo not given)
4.82
CCCCN1CCc2cc(Cl)c(O)cc2C(c2ccccc2)C1 (stereo not given)
0.634
BC#N.CN(C)CCCCCCN1CCc2cc(Cl)c(O)cc2C(c2ccccc2)C1 (stereo not given)
0.142
CN(C)CCCCN1CCc2cc(Cl)c(O)cc2C(c2ccccc2)C1 (stereo not given)
0.811

# input Consider the compound shown here: NCCCC(=O)N1CCc2cc(Cl)c(O)cc2C(c2ccccc2)C1 (stereo not given) What is its recorded Ki?
# output 0.607

# input // query: CN(C)CCCCCCN1CCc2cc(Cl)c(O)cc2C(c2ccccc2)C1 (stereo not given)
# output 0.0493

# input Do the same for NCCCCN1CCc2cc(Cl)c(O)cc2C(c2ccccc2)C1 (stereo not given) please
# output 0.075

----------
Assayed System: D(2) dopamine receptor (Rattus norvegicus)
Sequence (P61169 whole entry): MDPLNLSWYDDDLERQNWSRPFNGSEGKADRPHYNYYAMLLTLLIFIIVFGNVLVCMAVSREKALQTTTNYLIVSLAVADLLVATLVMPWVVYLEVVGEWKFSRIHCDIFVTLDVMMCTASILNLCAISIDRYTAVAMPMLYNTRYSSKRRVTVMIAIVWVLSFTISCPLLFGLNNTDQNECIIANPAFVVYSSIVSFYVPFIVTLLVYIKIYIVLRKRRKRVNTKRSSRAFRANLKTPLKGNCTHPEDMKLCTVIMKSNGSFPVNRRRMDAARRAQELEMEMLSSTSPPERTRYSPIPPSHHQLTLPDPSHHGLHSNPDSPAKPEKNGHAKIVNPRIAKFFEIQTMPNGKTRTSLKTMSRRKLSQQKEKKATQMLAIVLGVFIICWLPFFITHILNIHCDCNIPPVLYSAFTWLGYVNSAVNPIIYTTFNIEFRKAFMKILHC
Protocol Notes: Binding affinity against Dopamine receptor D2 from rat striatal membranes, using [3H]sulpiride as radioligand.
Result Type: pKi
pKi is defined as minus the log10 of a concentration measured in mol/L.

Illustrative cases are given below, each with its answer.
CCCCN1CCc2cc(Cl)c(O)cc2C(c2ccccc2)C1 (centres undefined)
5.63
COc1cc2c(cc1Br)CCN(CCCCN(C)C)CC2c1ccccc1 (centres undefined)
5.60
NCCCCCCN1CCc2cc(Cl)c(O)cc2C(c2ccccc2)C1 (centres undefined)
5.60
COc1cc2c(cc1Cl)CCN(CCCCN(C)C)CC2c1ccccc1 (centres undefined)
5.04

# input State the recorded pKi for this entry: O=CNCCCCCCN1CCc2cc(Cl)c(O)cc2C(c2ccccc2)C1 (centres undefined)
# output 5.69

# input // repeat for CNCCCCCCN1CCc2cc(Cl)c(O)cc2C(c2ccccc2)C1 (centres undefined) and report
# output 5.45

----------
Assayed System: D(2) dopamine receptor (Rattus norvegicus)
Protocol Notes: Binding affinity against Dopamine receptor D2 from rat striatal membranes, using [3H]sulpiride as radioligand.
In this section we review reported Ki values for a set of molecules.
Field: numeric (µM). Do not append units.

Sample records with Ki:
CN(C)CCCCN1CCc2cc(Cl)c(O)cc2C(c2ccccc2)C1 (stereo not drawn)
4.13
CN(C)CCCCCCN1CCc2cc(Cl)c(O)cc2C(c2ccccc2)C1 (stereo not drawn)
3.45
NCCCCN1CCc2cc(Cl)c(O)cc2C(c2ccccc2)C1 (stereo not drawn)
4.28

Okay, now this molecule:
# input Which Ki reading was recorded for the molecule NCCCC(=O)N1CCc2cc(Cl)c(O)cc2C(c2ccccc2)C1 (stereo not drawn) ?
# output 7.41
